- target_of_assay: human CD137 on primary human CD8+ T cells (human, UniProt Q07011 24-255)
- Sequence (Q07011 24-255): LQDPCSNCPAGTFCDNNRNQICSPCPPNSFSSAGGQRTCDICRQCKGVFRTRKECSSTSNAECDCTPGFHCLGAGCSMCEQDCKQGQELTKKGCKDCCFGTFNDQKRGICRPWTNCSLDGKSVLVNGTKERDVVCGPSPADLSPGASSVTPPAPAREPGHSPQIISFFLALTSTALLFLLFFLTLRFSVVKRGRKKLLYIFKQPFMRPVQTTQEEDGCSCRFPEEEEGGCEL
- assay_name: cell-based or functional assay
readout: Activity of non-crosslinked mAbs at 100 nM (hIL-2 pg/ml) (pg/mL)
Report only the number, with the unit pg/mL understood.

Reference set (3 entries):
G1AA/FS30-5 (antibody, human IgG1, kappa, L234A L235A, V domains shown, human IgG1 with LALA mutation in CH2; also called FS30-5 mAb) VH: EVQLLESGGGLVQPGGSLRLNCAASGFTFSSYAMSWVRQAPGKGLEWVSAISGSGGSTYYADSVKGRFTISRDNSKNTLYLQMNSLRAEDTAVYYCARSYDKYWGSSMYSGMDYWGQGTLVTVSS VL: EIVLTQSPGTLSLSPGERATLSCRASQSVSSSYLAWYQQKPGQAPRLLIYGASSRATGIPDRFSGSGSGTDFTLTISRLEPEDFAVYYCQQYYSYYPVTFGQGTKVEIKR	509
G1AA/FS30-15 (antibody, human IgG1, kappa, L234A L235A, V domains shown, human IgG1 with LALA mutation in CH2; also called FS30-15 mAb) VH: EVQLLESGGGLVQPGGSLRLSCAASGFTFSGSGMSWVRQAPGKGLEWVSIIYSTNGDTDYADSVKGRFTISRDNSKNTLYLQMNSLRAEDTAVYYCARDFYDIANYYAFDYWGQGTLVTVSS VL: EIVLTQSPGTLSLSPGERATLSCRASQSVSSSYLAWYQQKPGQAPRLLIYGASSRATGIPDRFSGSGSGTDFTLTISRLEPEDFAVYYCQQAYYDPITFGQGTKVEIKR	449
G1AA/FS30-16 (antibody, human IgG1, kappa, L234A L235A, V domains shown, human IgG1 with LALA mutation in CH2; also called FS30-16 mAb) VH: EVQLLESGGGLVQPGGSLRLSCAASGFTFSNYAMHWVRQAPGKGLEWVSTIDPTDGATNYADSVKGRFTISRDNSKNTLYLQMNSLRAEDTAVYYCARSKYYTYMQYVALDYWGQGTLVTVSS VL: EIVLTQSPGTLSLSPGERATLSCRASQSVSSSYLAWYQQKPGQAPRLLIYGASSRATGIPDRFSGSGSGTDFTLTISRLEPEDFAVYYCQQGSRFFPITFGQGTKVEIKR	402

Proceeding to the next binder to report its Activity of non-crosslinked mAbs at 100 nM (hIL-2 pg/ml).
Notebook: G1AA/FS30-6 (antibody, human IgG1, kappa, L234A L235A, V domains shown) VH: EVQLLESGGGLVQPGGSLRLSCAASGFTVSYYSISWVRQAPGKGLEWVSDIYSYYGYTDYADSVKGRFTISRDNSKNTLYLQMNSLRAEDTAVYYCARVSYGGQAFDYWGQGTLVTVSS VL: EIVLTQSPGTLSLSPGERATLSCRASQSVSSSYLAWYQQKPGQAPRLLIYGASSRATGIPDRFSGSGSGTDFTLTISRLEPEDFAVYYCQQYDDYPVTFGQGTKVEIKR , Activity of non-crosslinked mAbs at 100 nM (hIL-2 pg/ml) read as 532
